Target: Cholinesterase (Equus caballus, UniProt P81908)
Sequence (P81908 whole entry): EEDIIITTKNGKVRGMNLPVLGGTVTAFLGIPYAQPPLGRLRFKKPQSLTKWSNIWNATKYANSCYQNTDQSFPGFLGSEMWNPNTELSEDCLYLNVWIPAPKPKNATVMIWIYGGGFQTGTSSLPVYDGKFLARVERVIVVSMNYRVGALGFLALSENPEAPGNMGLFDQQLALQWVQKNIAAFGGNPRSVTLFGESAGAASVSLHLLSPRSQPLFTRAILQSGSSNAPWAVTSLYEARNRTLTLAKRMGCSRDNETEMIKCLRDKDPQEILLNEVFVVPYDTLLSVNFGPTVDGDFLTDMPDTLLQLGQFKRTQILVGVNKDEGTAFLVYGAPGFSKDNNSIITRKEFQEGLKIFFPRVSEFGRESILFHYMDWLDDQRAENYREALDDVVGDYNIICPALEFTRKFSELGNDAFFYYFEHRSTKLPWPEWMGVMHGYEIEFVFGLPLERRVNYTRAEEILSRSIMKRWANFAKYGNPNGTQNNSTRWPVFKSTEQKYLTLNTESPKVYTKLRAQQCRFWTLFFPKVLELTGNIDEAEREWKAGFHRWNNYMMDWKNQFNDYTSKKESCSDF
property_label: IC50
Answers without a unit are incomplete; give the number and then its unit.

Some compounds with known IC50 results, for comparison:
O=C(NCCc1c[nH]c2ccccc12)C1CCN(Cc2ccccc2[N+](=O)[O-])CC1 : 10.8 µM
Cc1ccccc1CN1CCC(CC(=O)NCCc2c[nH]c3ccccc23)CC1 : 1.49 µM
COc1ccc2[nH]cc(CCNC(=O)CC3CCN(Cc4ccc(Cl)cc4)CC3)c2c1 : 6.48 µM
O=C(CC1CCN(Cc2ccc(Cl)cc2)CC1)NCCc1c[nH]c2ccccc12 : 5.29 µM
COc1ccc2[nH]cc(CCNC(=O)C3CCN(Cc4ccccc4)CC3)c2c1 : 8.21 µM

For each of the items listed, what is its IC50?
1. Cc1ccccc1CN1CCC(C(=O)NCCc2c[nH]c3ccccc23)CC1
2. O=C(CCc1c[nH]c2ccccc12)NCCC1CCN(Cc2ccccc2)CC1
3. Cc1cccc(CN2CCC(CC(=O)NCCc3c[nH]c4ccccc34)CC2)c1
4. COc1ccc2[nH]cc(CCNC(=O)CC3CCN(Cc4ccc(C)cc4)CC3)c2c1
5. COc1ccc2[nH]cc(CCNC(=O)CC3CCN(Cc4ccccc4Cl)CC3)c2c1
6. O=C(NCCc1c[nH]c2ccccc12)C1CCN(Cc2ccccc2)CC1
7. COc1ccc2[nH]cc(CCNC(=O)C3CCN(Cc4ccccc4[N+](=O)[O-])CC3)c2c1
8. O=C(CC1CCN(Cc2ccccc2)CC1)NCCc1c[nH]c2ccccc12

["1.5 µM", "0.073 µM", "0.95 µM", "1.48 µM", "1.28 µM", "3.3 µM", "28.5 µM", "1.1 µM"]

For each of the items listed, what is its IC50?
1. COc1ccc2[nH]cc(CCNC(=O)CC3CCN(Cc4ccccc4C)CC3)c2c1
2. COc1ccc2[nH]cc(CCNC(=O)CC3CCN(Cc4cccc(C)c4)CC3)c2c1
3. O=C(CC1CCN(Cc2ccccc2Cl)CC1)NCCc1c[nH]c2ccccc12
4. O=C(CC1CCN(Cc2cccc(Cl)c2)CC1)NCCc1c[nH]c2ccccc12
5. COc1ccc2[nH]cc(CCNC(=O)C3CCN(Cc4ccccc4C)CC3)c2c1
6. Cc1ccc(CN2CCC(CC(=O)NCCc3c[nH]c4ccccc34)CC2)cc1
7. COc1ccc2[nH]cc(CCNC(=O)CC3CCN(Cc4cccc(Cl)c4)CC3)c2c1
8. O=C(CCc1c[nH]c2ccccc12)NC1CCN(Cc2ccccc2)CC1

1. 1.28 µM
2. 4.4 µM
3. 1.49 µM
4. 0.95 µM
5. 3.21 µM
6. 1.29 µM
7. 4.4 µM
8. 0.37 µM

* * *

Parameter 'readout' = pIC50; parameter 'system' = Acetylcholinesterase (Homo sapiens).
One number for each entry, as −log10 of the molar value.

Some compounds with known pIC50 results, for comparison:
Cc1ccccc1CN1CCC(C(=O)NCCc2c[nH]c3ccccc23)CC1 : 5.45
O=C(CC1CCN(Cc2ccccc2)CC1)NCCc1c[nH]c2ccccc12 : 5.42
O=C(CCc1c[nH]c2ccccc12)NC1CCN(Cc2ccccc2)CC1 : 5.08
COc1ccc2[nH]cc(CCNC(=O)CC3CCN(Cc4ccccc4C)CC3)c2c1 : 5.44
Cc1cccc(CN2CCC(CC(=O)NCCc3c[nH]c4ccccc34)CC2)c1 : 5.33

For each of the items listed, what is its pIC50?
1. COc1ccc2[nH]cc(CCNC(=O)C3CCN(Cc4ccccc4)CC3)c2c1
2. COc1ccc2[nH]cc(CCNC(=O)C3CCN(Cc4ccccc4C)CC3)c2c1
3. O=C(CCc1c[nH]c2ccccc12)NCCC1CCN(Cc2ccccc2)CC1
4. Cc1ccccc1CN1CCC(CC(=O)NCCc2c[nH]c3ccccc23)CC1
5. COc1ccc2[nH]cc(CCNC(=O)CC3CCN(Cc4cccc(C)c4)CC3)c2c1

1. 4.91
2. 5.13
3. 6.56
4. 5.81
5. 4.87

* * *

Molecular target: Acetylcholinesterase (Homo sapiens, UniProt P22303)
Sequence (P22303 whole entry): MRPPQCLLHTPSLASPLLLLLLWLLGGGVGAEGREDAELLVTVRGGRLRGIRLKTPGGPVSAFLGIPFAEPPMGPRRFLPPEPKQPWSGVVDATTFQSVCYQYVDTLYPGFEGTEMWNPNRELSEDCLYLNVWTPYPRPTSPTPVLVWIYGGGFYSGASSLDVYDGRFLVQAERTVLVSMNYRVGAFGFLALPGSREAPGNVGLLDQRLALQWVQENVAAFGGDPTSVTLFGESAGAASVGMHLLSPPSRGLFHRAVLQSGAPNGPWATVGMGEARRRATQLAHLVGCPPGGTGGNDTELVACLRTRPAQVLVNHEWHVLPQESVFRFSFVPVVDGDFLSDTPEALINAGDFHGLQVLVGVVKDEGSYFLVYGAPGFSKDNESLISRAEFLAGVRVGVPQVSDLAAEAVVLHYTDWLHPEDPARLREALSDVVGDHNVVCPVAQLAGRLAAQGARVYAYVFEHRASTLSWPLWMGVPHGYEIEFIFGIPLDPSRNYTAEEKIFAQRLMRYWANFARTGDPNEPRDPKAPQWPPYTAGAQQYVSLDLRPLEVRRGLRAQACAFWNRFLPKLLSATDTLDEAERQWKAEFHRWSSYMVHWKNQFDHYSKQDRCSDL
Give measured IC50 for each item. Keep answers brief.
Answers are plain numbers, in µM.

Some molecules with known IC50 results, for comparison:
COc1ccc2[nH]cc(CCNC(=O)CC3CCN(Cc4ccc(C)cc4)CC3)c2c1 : 9.26
O=C(NCCc1c[nH]c2ccccc12)C1CCN(Cc2ccccc2)CC1 : 7.85

// field: IC50; key: "Cc1ccc(CN2CCC(CC(=O)NCCc3c[nH]c4ccccc34)CC2)cc1" ; value = 4.94

* * *

Assay: in vitro
Details: PAMPA
Give measured Papp at 50 ug/ml for each item. Keep answers brief.
Answers without a unit are incomplete; give the number and then its unit.

Some compounds with known Papp at 50 ug/ml results, for comparison:
Cc1ccccc1CN1CCC(C(=O)NCCc2c[nH]c3ccccc23)CC1 : 8.9 ×10⁻⁶ cm/s
Cc1ccccc1CN1CCC(CC(=O)NCCc2c[nH]c3ccccc23)CC1 : 6.91 ×10⁻⁶ cm/s
O=C(CCc1c[nH]c2ccccc12)NCCC1CCN(Cc2ccccc2)CC1 : 6.98 ×10⁻⁶ cm/s
CC(=O)[C@H]1CC[C@H]2[C@@H]3CCC4=CC(=O)CC[C@]4(C)[C@H]3CC[C@]12C : 5.62 ×10⁻⁶ cm/s

For each of the items listed, what is its Papp at 50 ug/ml?
1. COc1ccc2[nH]cc(CCNC(=O)CC3CCN(Cc4ccccc4C)CC3)c2c1
2. O=C(CC1CCN(Cc2ccccc2)CC1)NCCc1c[nH]c2ccccc12
3. COc1ccc2[nH]cc(CCNC(=O)C3CCN(Cc4ccccc4C)CC3)c2c1

1. 10.9 ×10⁻⁶ cm/s
2. 7.4 ×10⁻⁶ cm/s
3. 9.37 ×10⁻⁶ cm/s

* * *

Biological target: Cholinesterase (Homo sapiens, UniProt P06276)
Sequence (P06276 whole entry): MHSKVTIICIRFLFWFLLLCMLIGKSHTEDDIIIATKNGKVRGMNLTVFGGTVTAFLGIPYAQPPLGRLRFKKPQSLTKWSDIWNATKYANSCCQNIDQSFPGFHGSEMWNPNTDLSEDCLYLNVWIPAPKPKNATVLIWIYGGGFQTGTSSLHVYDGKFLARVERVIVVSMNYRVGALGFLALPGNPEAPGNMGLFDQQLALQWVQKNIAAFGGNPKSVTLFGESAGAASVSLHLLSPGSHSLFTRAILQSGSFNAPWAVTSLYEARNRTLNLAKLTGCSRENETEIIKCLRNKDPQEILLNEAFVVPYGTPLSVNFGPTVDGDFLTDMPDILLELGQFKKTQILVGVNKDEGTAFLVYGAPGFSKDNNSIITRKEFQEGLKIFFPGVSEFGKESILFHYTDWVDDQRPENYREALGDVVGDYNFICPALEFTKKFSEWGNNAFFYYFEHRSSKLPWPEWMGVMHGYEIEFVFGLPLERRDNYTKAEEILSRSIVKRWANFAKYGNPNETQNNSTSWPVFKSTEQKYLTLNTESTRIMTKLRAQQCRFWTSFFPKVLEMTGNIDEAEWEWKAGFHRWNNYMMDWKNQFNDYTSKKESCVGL
Give measured IC50 for each item. Keep answers brief.
Answers without a unit are incomplete; give the number and then its unit.

Some compounds with known IC50 results, for comparison:
COc1ccc2[nH]cc(CCNC(=O)CC3CCN(Cc4ccc(C)cc4)CC3)c2c1 : 1.06 µM
O=C(CC1CCN(Cc2ccccc2)CC1)NCCc1c[nH]c2ccccc12 : 0.95 µM

// field: IC50; key: "O=C(CCc1c[nH]c2ccccc12)NCCC1CCN(Cc2ccccc2)CC1" ; value = 0.056 µM

* * *

Parameter 'readout' = pIC50; parameter 'system' = Acetylcholinesterase (Electrophorus electricus, UniProt O42275).
Sequence (O42275 whole entry): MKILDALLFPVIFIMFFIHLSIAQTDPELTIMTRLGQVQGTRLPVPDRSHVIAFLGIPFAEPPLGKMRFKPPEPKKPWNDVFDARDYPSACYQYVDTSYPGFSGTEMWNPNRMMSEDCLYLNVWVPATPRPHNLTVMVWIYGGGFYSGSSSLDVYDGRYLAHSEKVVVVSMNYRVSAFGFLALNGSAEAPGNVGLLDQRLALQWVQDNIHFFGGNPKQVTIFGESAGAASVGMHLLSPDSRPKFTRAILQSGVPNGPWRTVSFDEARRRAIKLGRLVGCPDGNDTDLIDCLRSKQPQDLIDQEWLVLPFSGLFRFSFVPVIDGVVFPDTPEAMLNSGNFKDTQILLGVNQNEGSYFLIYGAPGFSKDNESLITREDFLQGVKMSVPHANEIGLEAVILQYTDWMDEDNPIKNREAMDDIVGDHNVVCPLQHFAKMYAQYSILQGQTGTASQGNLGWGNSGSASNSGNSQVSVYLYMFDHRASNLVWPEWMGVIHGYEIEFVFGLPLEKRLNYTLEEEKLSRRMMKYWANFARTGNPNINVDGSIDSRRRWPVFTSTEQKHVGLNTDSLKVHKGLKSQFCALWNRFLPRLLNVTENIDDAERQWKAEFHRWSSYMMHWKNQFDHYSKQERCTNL
Give bare numbers, as −log10 of the molar value.

O=C(NCCc1c[nH]c2ccccc12)C1CCN(Cc2ccccc2)CC1 : 5.26

For each of the items listed, what is its pIC50?
1. COc1ccc2[nH]cc(CCNC(=O)CC3CCN(Cc4ccc(Cl)cc4)CC3)c2c1
2. COc1ccc2[nH]cc(CCNC(=O)CC3CCN(Cc4ccccc4Cl)CC3)c2c1
3. COc1ccc2[nH]cc(CCNC(=O)CC3CCN(Cc4cccc(Cl)c4)CC3)c2c1
4. O=C(CC1CCN(Cc2cccc(Cl)c2)CC1)NCCc1c[nH]c2ccccc12
5. COc1ccc2[nH]cc(CCNC(=O)C3CCN(Cc4ccccc4C)CC3)c2c1
6. COc1ccc2[nH]cc(CCNC(=O)C3CCN(Cc4ccccc4)CC3)c2c1
7. COc1ccc2[nH]cc(CCNC(=O)CC3CCN(Cc4ccccc4C)CC3)c2c1
8. O=C(CC1CCN(Cc2ccc(Cl)cc2)CC1)NCCc1c[nH]c2ccccc12

1: 4.69; 2: 4.77; 3: 5.02; 4: 5.79; 5: 5.35; 6: 5.03; 7: 5.66; 8: 4.65

// field: pIC50; key: "Cc1ccc(CN2CCC(CC(=O)NCCc3c[nH]c4ccccc34)CC2)cc1" ; value = 5.71

* * *

Parameter 'readout' = log10 IC50; parameter 'system' = Acetylcholinesterase (Electrophorus electricus).
Hello, just confirming the data are log10 of IC50 with units of µM.

Cc1ccccc1CN1CCC(C(=O)NCCc2c[nH]c3ccccc23)CC1 : 0.35
O=C(CC1CCN(Cc2ccccc2)CC1)NCCc1c[nH]c2ccccc12 : 0.32
O=C(NCCc1c[nH]c2ccccc12)C1CCN(Cc2ccccc2[N+](=O)[O-])CC1 : 1.50
COc1ccc2[nH]cc(CCNC(=O)C3CCN(Cc4ccccc4[N+](=O)[O-])CC3)c2c1 : 1.73
O=C(CCc1c[nH]c2ccccc12)NC1CCN(Cc2ccccc2)CC1 : 0.76
O=C(CCc1c[nH]c2ccccc12)NCCC1CCN(Cc2ccccc2)CC1 : -0.71

For each of the items listed, what is its log10 IC50?
1. COc1ccc2[nH]cc(CCNC(=O)CC3CCN(Cc4cccc(C)c4)CC3)c2c1
2. Cc1cccc(CN2CCC(CC(=O)NCCc3c[nH]c4ccccc34)CC2)c1
3. COc1ccc2[nH]cc(CCNC(=O)CC3CCN(Cc4ccc(C)cc4)CC3)c2c1
4. Cc1ccccc1CN1CCC(CC(=O)NCCc2c[nH]c3ccccc23)CC1
5. O=C(CC1CCN(Cc2ccccc2Cl)CC1)NCCc1c[nH]c2ccccc12

0.98
0.21
0.72
-0.03
1.45
